Data origin, for the record: PubChem BioAssay

biological target: NADPH oxidase 2 (Homo sapiens) (UniProt P04839); assay: NOX2-dependent H2O2 signal modulators, primary screen, NOX inhibitor project, cell-based, HEK293-NOX2, PMA-stimulated, Amplex Red fluorescence (AID 1159); conditions: 45 min, higher = more signal, called active from +8 up or from −8 down; further: test concentration not given here
Sequence (P04839 whole entry, looked up): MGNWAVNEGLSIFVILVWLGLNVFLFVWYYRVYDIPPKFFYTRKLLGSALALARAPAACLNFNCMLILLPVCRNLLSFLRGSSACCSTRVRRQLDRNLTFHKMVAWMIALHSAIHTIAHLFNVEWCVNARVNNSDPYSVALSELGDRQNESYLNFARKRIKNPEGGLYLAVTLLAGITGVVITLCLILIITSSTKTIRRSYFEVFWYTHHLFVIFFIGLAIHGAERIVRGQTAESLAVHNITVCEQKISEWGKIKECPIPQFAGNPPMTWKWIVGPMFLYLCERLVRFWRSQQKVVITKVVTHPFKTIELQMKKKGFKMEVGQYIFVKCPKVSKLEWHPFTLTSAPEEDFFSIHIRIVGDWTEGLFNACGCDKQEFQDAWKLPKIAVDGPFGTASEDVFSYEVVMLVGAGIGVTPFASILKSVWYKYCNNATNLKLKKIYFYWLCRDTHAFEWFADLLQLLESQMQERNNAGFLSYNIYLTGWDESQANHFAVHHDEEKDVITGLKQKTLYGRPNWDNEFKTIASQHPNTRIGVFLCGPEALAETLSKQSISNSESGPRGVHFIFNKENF
Think of 0.8 as a floor: if z-score stands on it or above, it is Satisfied; beneath it, Not satisfied.

Answered examples (10):
[
  {
    "compound": "C=CCOC(=O)[C@H]1[C@@H]2C(=O)O[C@@H](c3ccccc3)[C@@H](c3ccccc3)N2[C@@H](c2ccc(OCCOC(=O)[C@@H]3C[C@@H]4C(=O)N[C@@H](CCCCNC(C)=O)C(=O)N4[C@@H]3c3ccc(O)cc3)cc2)[C@]12C(=O)Nc1ccc(I)cc12",
    "assignedLabel": "Satisfied"
  },
  {
    "compound": "[N-]=[N+]=NCc1ccccc1C[C@]1(C(N)=O)N=C(c2ccc(OCCCO)cc2)O[C@H]1c1ccccc1",
    "assignedLabel": "Not satisfied"
  },
  {
    "compound": "CC(CO)N1C(=O)[C@@H]2[C@H]3C(=O)OCC=C[C@H]3OC23C=CCN(Cc2ccccc2)C(=O)[C@@H]13 (some centres undefined)",
    "assignedLabel": "Satisfied"
  },
  {
    "compound": "CCCCC=C[C@@H](NC(=O)c1ccc(-c2ccccc2)cc1)c1ccccc1",
    "assignedLabel": "Not satisfied"
  },
  {
    "compound": "C=C(COC)/C(=C/C[C@H](OC(=O)c1ccncc1)c1ccccc1OCCO)c1cnc2ccccc2c1",
    "assignedLabel": "Not satisfied"
  },
  {
    "compound": "COC(=O)[C@@]1(Cc2ccccc2)[C@H]2c3cc(C(=O)N(C)C)n(Cc4c(CO)[nH]cc(C)c4=O)c3C[C@H]2CN1C(=O)c1ccccc1",
    "assignedLabel": "Not satisfied"
  },
  {
    "compound": "O=C(CS)NCCCCCNC(=O)[C@@H]1C[C@@H]2C(=O)N3CCC[C@H]3C(=O)N2[C@@H]1c1cccc(OCCO)c1",
    "assignedLabel": "Satisfied"
  },
  {
    "compound": "CC(C)C(=C=CC[C@H](O)c1cccc(OCCO)c1)C[C@H](O)c1cc(Cl)cc(Cl)c1O",
    "assignedLabel": "Not satisfied"
  },
  {
    "compound": "COc1ccc([Si](C)(C)[C@H]2[C@H](CC(=O)N(CCO)Cc3ccccc3)O[C@@]3(C(=O)N(Cc4cccc(N5CCOC5=O)c4)c4ccccc43)[C@@H]2C)cc1",
    "assignedLabel": "Not satisfied"
  },
  {
    "compound": "COC(=O)c1ccc([C@H](NC(=O)c2ccco2)[C@]2(C)C[C@H]2C2CCCCC2)cc1",
    "assignedLabel": "Not satisfied"
  }
]

Input line: Determine whether this compound has z-score no lower than 0.8: `COCCOC(=O)N1C(=O)[C@@]2(c3cc(C#Cc4ccc(OC)cc4)ccc31)[C@H](c1ccc(O)cc1)N1[C@H](c3ccccc3)[C@H](c3ccccc3)OC(=O)[C@H]1[C@@H]2C(=O)N1CCCCCCC1`
Output line: Satisfied

Input line: Determine whether this compound has z-score no lower than 0.8: `C=CCN1C(=O)[C@@]2(CCS(=O)(=O)c3ccccc3)N=C(c3ccc(OCCCO)cc3)O[C@H]2c2ccccc21`
Output line: Not satisfied

Input line: Decide: is the reported value of z-score for `COc1ccc([Si](C)(C)[C@@H]2[C@@H](CC(=O)N(CCO)Cc3ccccc3)O[C@]3(C(=O)N(c4ccccc4)c4ccccc43)[C@H]2C)cc1` equal to or greater than 0.8?
Output line: Not satisfied
